Experiment: Absorption-maximum wavelength λmax, molar extinction coefficient ε and solution colour in each solvent
Format: physicochemical
Details: n-decane, at absorption-maximum wavelength
Description: Each of the compounds 1 to 15 and the comparative example compounds 1 and 2 (1 mg each) was dissolved in each solvent (100 ml) and measurement of absorption spectra was performed on Hitachi spectrophotometer U-4100 using a quartz cell having an optical path length for measurement of 10 mm. From the resulting spectra, absorption-maximum wavelength λmax (nm) and molar extinction coefficient ε ([…]) were determined.
Decide by ε: equal to or exceeding 70000 L/mol/cm means TRUE, less means FALSE.

Field: example entries. Status: answers known.
{"molecule": "CCCCc1ccc(N=Nc2cc(C#N)c(/N=N/c3ccc(N(CC(CC)CCCC)CC(CC)CCCC)cc3NC(C)=O)s2)cc1 (centres unmarked)", "class_label": "TRUE"}
{"molecule": "CCCCCc1ccc(N=Nc2cc(C#N)c(/N=N/c3cc(OC)c(N(CC(CC)CCCC)CC(CC)CCCC)cc3NC(C)=O)s2)cc1 (centres unmarked)", "class_label": "TRUE"}
{"molecule": "CCCCc1ccc(N=Nc2cc(C#N)c(/N=N/c3ccc(N(CC(CC)CCCC)CC(CC)CCCC)cc3C)s2)cc1 (centres unmarked)", "class_label": "FALSE"}
{"molecule": "CCCCc1ccc(N=Nc2cc(C#N)c(N=Nc3cc(OC)c(N(CC(CC)CCCC)CC(CC)CCCC)cc3NC(C)=O)s2)cc1 (centres unmarked)", "class_label": "TRUE"}
{"molecule": "CCCCC(CC)COC(=O)c1ccc(N=Nc2cc(C#N)c(N=Nc3ccc(N(CC(CC)CCCC)CC(CC)CCCC)cc3C)s2)cc1 (centres unmarked)", "class_label": "FALSE"}
{"molecule": "CCCCC(CC)CN(CC(CC)CCCC)c1cc(NC(C)=O)c(/N=N/c2nc(Cl)c(C=O)s2)cc1OC (centres unmarked)", "class_label": "FALSE"}
{"molecule": "CCCCC(CC)CN(CC(CC)CCCC)c1ccc(N=Nc2sc(C=C(C#N)C#N)c(Cl)c2C#N)c(NC(=O)C(CC)CCCC)c1 (centres unmarked)", "class_label": "FALSE"}
{"molecule": "CCCCC(CC)CN(CC(CC)CCCC)c1ccc(/N=N/c2sc(N=Nc3ccc(C(=O)OCC(C)C)cc3)cc2C#N)c(C(C)C)c1 (centres unmarked)", "class_label": "FALSE"}

Query :: Has CCCCOc1ccc(N=Nc2sc(N=Nc3ccc(N(CC(CC)CCCC)CC(CC)CCCC)cc3Cl)nc2C)cc1 (centres unmarked) a recorded ε greater than or equal to 70000 L/mol/cm?
Result :: FALSE

Query :: Has C=CCn1c(N=Nc2ccc(N(CCC)CCC)cc2NC(C)=O)nc(C#N)c1C#N [Comparative example compound 2, reference compound] a recorded ε greater than or equal to 70000 L/mol/cm?
Result :: FALSE

Query :: Has CCCCC(CC)CN(CC(CC)CCCC)c1ccc(N=Nc2sc(N=Nc3ccc(C(=O)OCC(C)C)cc3)cc2C#N)c(CC)c1 (centres unmarked) a recorded ε greater than or equal to 70000 L/mol/cm?
Result :: FALSE

###

experiment: Absorption-maximum wavelength λmax, molar extinction coefficient ε and solution colour in each solvent; format: physicochemical; details: tetradecane
Could you please report measured Absorption-maximum wavelength for the items listed next?
Numbers only, in nm.

{"compound": "C=CCn1c(N=Nc2ccc(N(CCC)CCC)cc2NC(C)=O)nc(C#N)c1C#N [Comparative example compound 2, reference compound]", "unit_text": "nm", "Absorption-maximum wavelength": 514}
{"compound": "CCCCC(CC)COC(=O)c1ccc(N=Nc2cc(C#N)c(N=Nc3ccc(N(CC(CC)CCCC)CC(CC)CCCC)cc3NC(C)=O)s2)cc1 (stereo not drawn)", "unit_text": "nm", "Absorption-maximum wavelength": 639}

// below: Absorption-maximum wavelength requested for another compound
Query :: Item under review: CCCCC(CC)COC(=O)C(C#N)=Cc1sc(N=Nc2cc(OC)c(N(CC(CC)CCCC)CC(CC)CCCC)cc2NC(C)=O)nc1Cl (stereo not drawn) . Reported Absorption-maximum wavelength?
Result :: 658

###

experiment: Absorption-maximum wavelength λmax, molar extinction coefficient ε and solution colour in each solvent; format: physicochemical; conditions: n-decane solution

{"compound": "CCCCc1ccc(N=Nc2cc(C#N)c(N=Nc3cc(OC)c(N(CC(CC)CCCC)CC(CC)CCCC)cc3NC(=O)CC)s2)cc1 (stereo not drawn)", "Color tone": "blue"}
{"compound": "CCCCC(CC)COC(=O)c1ccc(N=Nc2cc(C#N)c(N=Nc3ccc(N(CC(CC)CCCC)CC(CC)CCCC)cc3NC(C)=O)s2)cc1 (stereo not drawn)", "Color tone": "blue"}
{"compound": "CCCCC(CC)CN(CC(CC)CCCC)c1cc(NC(C)=O)c(N=Nc2sc(C(=O)OCC)c(C)c2C(=O)OCC)cc1OC (stereo not drawn)", "Color tone": "blue"}

###

Test: Solubility C (saturated concentration at 5° C.) of compound in low-polarity solvent and product εC
Format: physicochemical
Details: Isopar M, C at 5° C.
Experimental: The solubility C of each compound in each solvent was measured as follows. Each compound was added to each solvent until a dissolution residue came to remain, and the mixture was subjected to an ultrasonic treatment for 30 minutes at 30° C. […] Moreover, the value of the product of the molar extinction coefficient ε (L·mol^−1·cm^−1) and the solubility C (mol·L^−1), εC, was determined. […]
measured_metric: ε · C (cm⁻¹)
Numbers only, in cm⁻¹.

Consider the following illustrative entries.
{"molecule": "CCCCc1ccc(N=Nc2cc(C#N)c(N=Nc3cc(OC)c(N(CC(CC)CCCC)CC(CC)CCCC)cc3NC(C)=O)s2)cc1 (stereo not shown)", "measured_metric": "ε · C", "value_reported": 11100}
{"molecule": "CCCCC(CC)COC(=O)c1ccc(N=Nc2cc(C#N)c(N=Nc3ccc(N(CC(CC)CCCC)CC(CC)CCCC)cc3C)s2)cc1 (stereo not shown)", "measured_metric": "ε · C", "value_reported": 10400}

Go through the items and report each one's ε · C.
1. CCCCC(CC)CNc1ccc(NCC(CC)CCCC)c2c1C(=O)c1ccccc1C2=O (stereo not shown) [Comparative example compound 1, reference compound]
2. CCCCC(CC)CN(CC(CC)CCCC)c1cc(NC(C)=O)c(/N=N/c2nc(Cl)c(C=O)s2)cc1OC (stereo not shown)

Result ::
1. 1200
2. 2000

###

experiment: Absorption-maximum wavelength λmax, molar extinction coefficient ε and solution colour in each solvent; assay type: physicochemical; settings: n-decane, at absorption-maximum wavelength
Could you please report measured ε for the items listed next?
Answers are plain numbers, in L/mol/cm.

{"compound": "CCCCC(CC)COC(=O)C(C#N)=Cc1sc(N=Nc2cc(OC)c(N(CC(CC)CCCC)CC(CC)CCCC)cc2NC(C)=O)nc1Cl (stereo not drawn)", "value_reported": 61000}
{"compound": "CCCCC(CC)COC(=O)c1ccc(N=Nc2cc(C#N)c(N=Nc3ccc(N(CC(CC)CCCC)CC(CC)CCCC)cc3NC(C)=O)s2)cc1 (stereo not drawn)", "value_reported": 79000}
{"compound": "CCCCC(CC)CNc1ccc(NCC(CC)CCCC)c2c1C(=O)c1ccccc1C2=O (stereo not drawn) [Comparative example compound 1, reference compound]", "value_reported": 17000}
{"compound": "CCCCc1ccc(N=Nc2cc(C#N)c(N=Nc3cc(OC)c(N(CC(CC)CCCC)CC(CC)CCCC)cc3C)s2)cc1 (stereo not drawn)", "value_reported": 50000}

Go through the items and report each one's ε.
1. CCCCC(CC)CN(CC(CC)CCCC)c1cc(NC(C)=O)c(N=Nc2sc(C(=O)OCC)c(C)c2C(=O)OCC)cc1OC (stereo not drawn)
2. CCCCc1ccc(N=Nc2cc(C#N)c(N=Nc3cc(OC)c(N(CC(CC)CCCC)CC(CC)CCCC)cc3NC(=O)CC)s2)cc1 (stereo not drawn)

Result ::
1. 46000
2. 76000

###

test: Solubility C (saturated concentration at 5° C.) of compound in low-polarity solvent and product εC; assay type: physicochemical; conditions: tetradecane, C at 5° C.
measured_metric: ε · C

Consider the following illustrative entries.
{"compound": "CCCCC(CC)CN(CC(CC)CCCC)c1ccc(/N=N/c2sc(N=Nc3ccc(C(=O)OCC(C)C)cc3)cc2C#N)c(C(C)C)c1 (stereo not shown)", "ε · C": "1300 cm⁻¹"}
{"compound": "CCCCc1ccc(N=Nc2cc(C#N)c(N=Nc3cc(OC)c(N(CC(CC)CCCC)CC(CC)CCCC)cc3NC(C)=O)s2)cc1 (stereo not shown)", "ε · C": "10600 cm⁻¹"}
{"compound": "CCCCC(CC)COC(=O)C(C#N)=Cc1sc(N=Nc2cc(OC)c(N(CC(CC)CCCC)CC(CC)CCCC)cc2NC(C)=O)nc1Cl (stereo not shown)", "ε · C": "2000 cm⁻¹"}

Go through the items and report each one's ε · C.
1. CCCCC(CC)CN(CC(CC)CCCC)c1ccc(N=Nc2sc(N=Nc3ccc(C(=O)OCC(C)C)cc3)cc2C#N)c(CC)c1 (stereo not shown)
2. CCCCC(CC)CN(CC(CC)CCCC)c1cc(NC(C)=O)c(/N=N/c2nc(Cl)c(C=O)s2)cc1OC (stereo not shown)
3. C=CCn1c(N=Nc2ccc(N(CCC)CCC)cc2NC(C)=O)nc(C#N)c1C#N [Comparative example compound 2, reference compound]
4. CCCCC(CC)COC(=O)c1ccc(N=Nc2cc(C#N)c(N=Nc3ccc(N(CC(CC)CCCC)CC(CC)CCCC)cc3C)s2)cc1 (stereo not shown)

Result ::
1: 1500 cm⁻¹; 2: 3300 cm⁻¹; 3: ≤ 10 or cm^−1; 4: 9300 cm⁻¹

Data provenance: patent US9200171B2
